Tested on: Karpas 422 cells
Test: Karpas 422 cell viability, CTG (Cell Titre Glo) assay
Type: cell-based, human
Settings: Homo sapiens; Inhibition of proliferation of Karpas 422 cells (EZH2 Y641N); viability measured Day 4, Day 7 or Day 11, time point of the tabulated values not stated
Reported values of IC50 for individual entries

Compound	IC50
CN(C)Cc1c(F)cc(-c2cnc(NCc3c(F)ccc4c3CCO4)n3cc(C#N)nc23)cc1F	≤ 250 nM
Cc1cc(-c2cnc(NCc3c(F)ccc4c3CCO4)n3cc(C(N)=O)nc23)n(C)n1	≤ 250 nM
N#Cc1cn2c(NCc3c(F)ccc4c3CCO4)ncc(-c3ccc(CN4CCCC4=O)cc3)c2n1	≤ 250 nM
N#Cc1cn2c(NCc3c(F)ccc4c3CCO4)ncc(-c3cnccn3)c2n1	≤ 250 nM
CN(C)Cc1ccc(-c2cnc(NCc3c(F)ccc4c3CCO4)n3cc(C#N)nc23)c(F)c1F	≤ 250 nM
CN1CCCC1c1ccc(-c2cnc(NCc3c(F)ccc4c3CCO4)n3cc(C#N)nc23)cc1 (stereo not drawn)	≤ 250 nM
COC(=O)c1ccc(-c2cnc(NCc3c(F)ccc4c3CCO4)n3cc(C#N)nc23)cc1	≤ 250 nM
CS(=O)(=O)c1ccc(-c2cnc(NCc3c(F)ccc4c3CCO4)n3cc(C#N)nc23)cc1	≤ 250 nM
N#Cc1cn2c(NCc3c(F)ccc4c3CCO4)ncc(-c3cnn(CC4CCOC4)c3)c2n1 (stereo not drawn)	250 to 500 nM
CN(C)C(=O)c1ccc(-c2cnc(NCc3c(F)ccc4c3CCO4)n3cc(C#N)nc23)cc1F	≤ 250 nM
Cc1ncccc1-c1cnc(NCc2c(F)ccc3occc23)n2cc(C(=O)O)nc12	> 500 nM
Cc1nn(C[C@@H](C)O)c(C)c1-c1cnc(NCc2c(F)ccc3c2CCO3)n2cc(C#N)nc12	≤ 250 nM
CN(C)C(=O)c1c(F)cc(-c2cnc(NCc3c(F)ccc4c3CCO4)n3cc(C#N)nc23)cc1F	≤ 250 nM
CN(C)Cc1cc(F)c(-c2cnc(NCc3c(F)ccc4c3CCO4)n3cc(C#N)nc23)cc1F	≤ 250 nM
CNC(=O)c1cn2c(NCc3c(F)ccc4c3CCO4)ncc(-c3cc(C)nn3C)c2n1	≤ 250 nM
Cn1nccc1-c1cnc(NCc2c(F)ccc3c2CCO3)n2cc(C#N)nc12	≤ 250 nM
Cc1ncccc1-c1cnc(NCc2c(F)ccc3c2CCO3)n2cc(C(=O)O)nc12	> 500 nM
CNC(=O)c1ccc(-c2cnc(NCc3c(F)ccc4c3CCO4)n3cc(C#N)nc23)cc1	≤ 250 nM
N#Cc1cn2c(NCc3c(F)ccc4c3CCO4)ncc(-c3ccccn3)c2n1	≤ 250 nM
CN(C)Cc1ccc(-c2cnc(NCc3c(F)ccc4c3CCO4)n3cc(C#N)nc23)cc1C#N	≤ 250 nM
Cc1cncc(-c2cnc(NCc3c(F)ccc4c3CCO4)n3cc(C#N)nc23)c1	250 to 500 nM
COCCOc1ncc(-c2cnc(NCc3c(F)ccc4c3CCO4)n3cc(C#N)nc23)cn1	250 to 500 nM
Cn1nc(C#N)cc1-c1cnc(NCc2c(F)ccc3c2CCO3)n2cc(C#N)nc12	≤ 250 nM
N#Cc1cn2c(NCc3c(F)ccc4c3CCO4)ncc(C3CC3)c2n1	> 500 nM
N#Cc1ccc(-c2cnc(NCc3c(F)ccc4c3CCO4)n3cc(C#N)nc23)cn1	> 500 nM
Cc1nc(C2CC2)ncc1-c1cnc(NCc2c(F)ccc3c2CCO3)n2cc(C#N)nc12	250 to 500 nM
Cc1ncc(-c2cnc(NCc3c(F)ccc4c3CCO4)n3cc(C#N)nc23)cn1	≤ 250 nM
COC1CN(Cc2ccc(-c3cnc(NCc4c(F)ccc5c4CCO5)n4cc(C#N)nc34)cc2)C1	≤ 250 nM
N#Cc1cn2c(NCc3c(F)ccc4c3CCO4)ncc(-c3cnn(CC(F)(F)F)c3)c2n1	≤ 250 nM
COCCOc1ccc(-c2cnc(NCc3c(F)ccc4c3CCO4)n3cc(C#N)nc23)cn1	250 to 500 nM
[2H]C([2H])(c1ccc(-c2cnc(NCc3c(F)ccc4c3CCO4)n3cc(C#N)nc23)c(C)c1)N(C)C	≤ 250 nM
N#Cc1cn2c(NCc3c(F)ccc4c3CCO4)ncc(-c3ccc(N)nc3)c2n1	250 to 500 nM
Cc1nc(OC(C)C)ncc1-c1cnc(NCc2c(F)ccc3c2CCO3)n2cc(C#N)nc12	≤ 250 nM

---

Test system: Karpas 422 cells
Experiment: Karpas 422 cell viability, CTG (Cell Titre Glo) assay
Format: cell-based, human
Details: Inhibition of proliferation of Karpas 422 cells (EZH2 Y641N); viability measured Day 4, Day 7 or Day 11, time point of the tabulated values not stated

Compound	Target Of Assay	IC50
Cc1cc(C2CCCN2)ccc1-c1cnc(NCc2c(F)ccc3c2CCO3)n2cc(C#N)nc12 (single isomer, unassigned)	Karpas 422 cells	≤ 250 nM

---

Test system: PRC2-mediated histone H3 methylation
Test: Tri-Methyl Histone H3 (Lys 27) Sandwich ELISA in Pfeiffer cells: inhibition of PRC2-mediated histone H3 methylation
Format: cell-based, human
Settings: Homo sapiens; Inhibition of EZH2-mediated histone H3 trimethylation; Pfeiffer cells (EZH2 A677G), 96 hours incubation
Description: The Pfeiffer cell line was established from a […] from a patient having metastatic diffuse large B-cell lymphoma (DLBCL). […] Inhibition of PRC2-mediated histone H3 methylation by compounds of Formula (I) was measured by ELISA using a Tri-Methyl Histone H3 (Lys 27) Sandwich ELISA Kit (Cell Signaling Tech #7866C) in accordance with the manufacturer's instructions. […]
pIC50: −log10 of the molar value.
Reported values of pIC50 for individual entries

Sample Smiles	pIC50
Cc1nc(CN(C)C)ccc1-c1cnc(NCc2c(F)ccc3c2CCO3)n2cc(C#N)nc12	6.30 to 7.00
Cc1ncccc1-c1cnc(NCc2c(F)ccc3c2CCO3)n2cc(C#N)nc12	≥ 7.00
CN(C)Cc1ccc(-c2cnc(NCc3c(F)ccc4c3CCO4)n3cc(C#N)nc23)c(F)c1	≥ 7.00
CN(C)Cc1ccc(-c2cnc(NCc3c(F)ccc4c3CCO4)n3cc(C#N)nc23)c(C#N)c1	6.30 to 7.00

---

Molecular target: purified human, His-tagged PRC2 complex (Homo sapiens, UniProt O75530+Q15910)
Sequence (Q15910 whole entry): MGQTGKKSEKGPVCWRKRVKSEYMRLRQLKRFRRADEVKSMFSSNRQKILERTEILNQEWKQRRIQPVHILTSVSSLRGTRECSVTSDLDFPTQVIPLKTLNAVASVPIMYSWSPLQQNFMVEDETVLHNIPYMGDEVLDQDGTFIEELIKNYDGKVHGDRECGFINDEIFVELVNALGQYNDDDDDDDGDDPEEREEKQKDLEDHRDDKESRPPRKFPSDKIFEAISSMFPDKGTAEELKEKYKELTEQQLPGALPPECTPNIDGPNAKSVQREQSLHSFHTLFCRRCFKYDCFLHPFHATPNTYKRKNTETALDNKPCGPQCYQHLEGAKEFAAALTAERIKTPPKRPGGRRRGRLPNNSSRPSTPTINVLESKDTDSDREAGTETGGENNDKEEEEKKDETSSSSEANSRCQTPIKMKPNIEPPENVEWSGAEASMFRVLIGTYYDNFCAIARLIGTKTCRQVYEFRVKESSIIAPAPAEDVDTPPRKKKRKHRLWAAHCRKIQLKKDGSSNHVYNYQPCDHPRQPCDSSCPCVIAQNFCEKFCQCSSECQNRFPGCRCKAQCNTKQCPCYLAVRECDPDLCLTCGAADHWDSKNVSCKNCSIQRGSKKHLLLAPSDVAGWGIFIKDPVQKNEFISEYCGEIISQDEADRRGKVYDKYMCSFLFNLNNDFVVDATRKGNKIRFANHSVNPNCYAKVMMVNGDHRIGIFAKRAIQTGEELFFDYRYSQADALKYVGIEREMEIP
Sequence (O75530 whole entry): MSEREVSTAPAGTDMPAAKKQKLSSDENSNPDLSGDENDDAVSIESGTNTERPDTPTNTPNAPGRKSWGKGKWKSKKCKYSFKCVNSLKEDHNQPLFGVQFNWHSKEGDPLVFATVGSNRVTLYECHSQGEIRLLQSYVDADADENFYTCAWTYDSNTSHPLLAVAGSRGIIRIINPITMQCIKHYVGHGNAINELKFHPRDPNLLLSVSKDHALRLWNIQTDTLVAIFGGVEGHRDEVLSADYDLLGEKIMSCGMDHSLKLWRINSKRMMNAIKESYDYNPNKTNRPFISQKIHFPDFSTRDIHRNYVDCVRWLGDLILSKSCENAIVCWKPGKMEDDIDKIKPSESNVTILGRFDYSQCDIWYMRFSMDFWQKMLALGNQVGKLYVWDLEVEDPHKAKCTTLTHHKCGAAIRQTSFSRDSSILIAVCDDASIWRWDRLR
Sequence (Q15022 whole entry partner): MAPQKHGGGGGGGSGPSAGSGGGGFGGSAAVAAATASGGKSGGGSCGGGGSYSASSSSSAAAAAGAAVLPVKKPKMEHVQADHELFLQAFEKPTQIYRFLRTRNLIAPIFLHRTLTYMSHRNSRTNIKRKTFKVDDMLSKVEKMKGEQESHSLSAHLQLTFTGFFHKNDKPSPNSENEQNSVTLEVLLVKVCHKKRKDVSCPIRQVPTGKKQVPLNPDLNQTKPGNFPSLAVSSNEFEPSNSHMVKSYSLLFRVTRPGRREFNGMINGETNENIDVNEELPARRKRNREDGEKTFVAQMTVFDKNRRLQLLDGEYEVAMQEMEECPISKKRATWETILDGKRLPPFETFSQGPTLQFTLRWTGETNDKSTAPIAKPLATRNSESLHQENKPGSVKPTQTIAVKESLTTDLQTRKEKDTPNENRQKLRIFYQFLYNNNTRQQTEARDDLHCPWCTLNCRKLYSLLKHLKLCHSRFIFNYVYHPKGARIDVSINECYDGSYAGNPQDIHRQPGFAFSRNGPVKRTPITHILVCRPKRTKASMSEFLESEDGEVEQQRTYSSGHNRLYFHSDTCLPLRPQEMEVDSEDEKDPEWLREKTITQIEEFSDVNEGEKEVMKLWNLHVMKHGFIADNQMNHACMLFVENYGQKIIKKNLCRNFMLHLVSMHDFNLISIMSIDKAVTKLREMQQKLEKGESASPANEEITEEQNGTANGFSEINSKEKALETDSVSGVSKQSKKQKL
Sequence (Q6ZN18 whole entry partner): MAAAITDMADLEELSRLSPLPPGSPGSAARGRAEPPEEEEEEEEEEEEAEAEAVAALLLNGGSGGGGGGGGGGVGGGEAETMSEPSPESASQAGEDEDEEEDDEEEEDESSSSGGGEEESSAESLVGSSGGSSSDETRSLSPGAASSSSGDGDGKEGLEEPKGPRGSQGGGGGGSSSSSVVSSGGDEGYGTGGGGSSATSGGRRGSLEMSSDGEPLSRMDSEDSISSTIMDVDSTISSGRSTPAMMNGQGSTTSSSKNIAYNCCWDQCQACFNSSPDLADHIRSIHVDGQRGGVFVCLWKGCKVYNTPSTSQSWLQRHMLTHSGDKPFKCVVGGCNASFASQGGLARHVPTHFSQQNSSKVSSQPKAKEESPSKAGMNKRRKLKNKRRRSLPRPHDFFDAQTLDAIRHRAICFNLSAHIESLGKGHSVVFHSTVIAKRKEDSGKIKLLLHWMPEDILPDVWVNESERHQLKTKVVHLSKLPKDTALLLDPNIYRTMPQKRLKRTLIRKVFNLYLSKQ
Sequence (Q09028 whole entry partner): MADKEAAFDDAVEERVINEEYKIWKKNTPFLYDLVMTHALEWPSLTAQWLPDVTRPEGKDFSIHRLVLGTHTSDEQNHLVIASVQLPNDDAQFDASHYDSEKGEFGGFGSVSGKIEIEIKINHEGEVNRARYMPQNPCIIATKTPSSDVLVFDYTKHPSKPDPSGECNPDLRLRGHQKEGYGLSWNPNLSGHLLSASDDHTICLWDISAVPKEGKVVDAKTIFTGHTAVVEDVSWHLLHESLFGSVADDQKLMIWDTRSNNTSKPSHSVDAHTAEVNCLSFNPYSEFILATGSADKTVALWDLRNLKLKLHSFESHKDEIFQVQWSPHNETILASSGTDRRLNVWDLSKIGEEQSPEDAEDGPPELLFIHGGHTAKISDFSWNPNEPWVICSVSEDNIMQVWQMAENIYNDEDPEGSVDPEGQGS
Test: Hot Spot HMT assay: inhibition of PRC2 enzymatic activity (transfer of tritiated methyl from SAM to core histone, filter binding)
Assay type: biochemical
Details: Inhibition of PRC2-mediated enzymatic activity; 10 nM PRC2 complex, 0.05 mg/ml core histone H3, 1 uM 3H-SAM, 1 hr at 30°C
Reported values of IC50 for individual entries

Molecule	IC50
Cc1cc(-c2cnc(NCc3cccc4c3CCO4)n3cc(C#N)nc23)n(C)n1	100 to 500 nM
CN(C)C1(c2ccc(-c3cnc(NCc4c(F)ccc5c4CCO5)n4cc(C#N)nc34)cc2)CC1	< 100 nM
N#Cc1cn2c(NCc3c(F)ccc4c3CCO4)ncc(-c3ccc(C(=O)N4CCOCC4)cc3)c2n1	< 100 nM
CNCc1ccc(-c2cnc(NCc3c(F)ccc4c3CCO4)n3cc(C#N)nc23)cc1	< 100 nM
N#Cc1cn2c(NCc3c(F)ccc4c3CCO4)ncc(-c3cnn(C4CCOC4)c3)c2n1 (centres unmarked)	100 to 500 nM
CNC(=O)c1cc(-c2cnc(NCc3c(F)ccc4c3CCO4)n3cc(C#N)nc23)n(C)n1	< 100 nM
Cc1nc(OC(C)C)ncc1-c1cnc(NCc2c(F)ccc3c2CCO3)n2cc(C#N)nc12	< 100 nM
CCOP(=O)(OCC)c1ccc(-c2cnc(NCc3c(F)ccc4c3CCO4)n3cc(C#N)nc23)cc1	< 100 nM
CN(C)C(=O)c1ccc(-c2cnc(NCc3c(F)ccc4c3CCO4)n3cc(C#N)nc23)c(F)c1F	< 100 nM
N#Cc1cn2c(NCc3c(F)ccc4c3CCO4)ncc(-c3n[nH]cc3Br)c2n1	100 to 500 nM
CN(C)CCOc1ccc(-c2cnc(NCc3c(F)ccc4c3CCO4)n3cc(C#N)nc23)cc1	100 to 500 nM
CN(C)Cc1cc(F)c(-c2cnc(NCc3c(F)ccc4c3CCO4)n3cc(C#N)nc23)cc1F	< 100 nM
CN(C)C(=O)c1ccc(-c2cnc(NCc3c(F)ccc4c3CCO4)n3cc(C#N)nc23)cc1F	< 100 nM
Cc1cc(C(=O)N(C)C)ccc1-c1cnc(NCc2c(F)ccc3c2CCO3)n2cc(C#N)nc12	< 100 nM
N#Cc1cn2c(NCc3c(F)ccc4c3CCO4)ncc(-c3ccc(C4CCCN4)cc3)c2n1 (centres unmarked)	100 to 500 nM
CN(C)c1ccc(-c2cnc(NCc3c(F)ccc4c3CCO4)n3cc(C#N)nc23)cn1	100 to 500 nM
N#Cc1cn2c(NCc3c(F)ccc4c3CCO4)ncc(-c3ccccn3)c2n1	100 to 500 nM
N#Cc1cn2c(NCc3c(F)ccc4c3CCO4)ncc(-c3cnn(CC(F)(F)F)c3)c2n1	< 100 nM
N#Cc1cn2c(NCc3c(F)ccc4c3CCO4)ncc(-c3ccc(CO)nc3)c2n1	100 to 500 nM
N#Cc1cn2c(NCc3c(F)ccc4c3CCO4)ncc(-c3cccnc3C(F)F)c2n1	< 100 nM
Cc1cc(-c2cnc(NCc3c(F)ccc4occc34)n3cc(C(N)=O)nc23)n(C)n1	< 100 nM
N#Cc1cn2c(NCc3c(F)ccc4c3CCO4)ncc(-c3ccc(CN4CCC(F)C4)cc3)c2n1 (centres unmarked)	< 100 nM
Cc1n[nH]c(C)c1-c1cnc(NCc2c(F)ccc3c2CCO3)n2cc(C#N)nc12	> 500 nM
Cc1ncc(-c2cnc(NCc3c(F)ccc4c3CCO4)n3cc(C#N)nc23)cn1	< 100 nM
N#Cc1cn2c(NCc3c(F)ccc4c3CCO4)ncc(-c3cncc(C(F)(F)F)c3)c2n1	> 500 nM
N#Cc1cn2c(NCc3c(F)ccc4c3CCO4)ncc(-c3cnn(CCO)c3)c2n1	100 to 500 nM
CN(C)CCn1cc(-c2cnc(NCc3c(F)ccc4c3CCO4)n3cc(C#N)nc23)cn1	100 to 500 nM
CC(O)Cn1cc(-c2cnc(NCc3c(F)ccc4c3CCO4)n3cc(C#N)nc23)cn1 (centres unmarked)	< 100 nM
COC1CN(Cc2ccc(-c3cnc(NCc4c(F)ccc5c4CCO5)n4cc(C#N)nc34)cc2)C1	< 100 nM
N#Cc1cn2c(NCc3c(F)ccc4c3CCO4)ncc(-c3cnn(C4CCOCC4)c3)c2n1	> 500 nM
Cc1cc(-c2cnc(NCc3c(F)ccc4c3C(O)CO4)n3cc(C#N)nc23)n(C)n1 (centres unmarked)	< 100 nM
Cn1nccc1-c1cnc(NCc2c(F)ccc3c2CCO3)n2cc(C#N)nc12	< 100 nM
